Experiment: Lipophilicity, logP of the compound
Assay type: physicochemical
Settings: octanol/water; read-out: logP
Observed Property: logP
API doc: respond with a numeric literal and nothing else, no unit.

// `C[C@H]1[C@@H](CC(COC(=O)c2cc(F)nc(F)c2)C[C@H]2O[C@@H]3O[C@@]4(C)CC[C@H]5[C@H](C)CC[C@@H]([C@H]2C)[C@@]35OO4)O[C@@H]2O[C@@]3(C)CC[C@H]4[C@H](C)CC[C@@H]1[C@@]24OO3` : logP value = 8.9

// `Cc1cc(C(=O)OCC(C[C@H]2O[C@@H]3O[C@@]4(C)CC[C@H]5[C@H](C)CC[C@@H]([C@H]2C)[C@@]35OO4)C[C@H]2O[C@@H]3O[C@@]4(C)CC[C@H]5[C@H](C)CC[C@@H]([C@H]2C)[C@@]35OO4)cc(C)n1` : logP value = 8.1

// `C[C@H]1[C@@H](CC(COC(=O)c2ccncc2)C[C@H]2O[C@@H]3O[C@@]4(C)CC[C@H]5[C@H](C)CC[C@@H]([C@H]2C)[C@@]35OO4)O[C@@H]2O[C@@]3(C)CC[C@H]4[C@H](C)CC[C@@H]1[C@@]24OO3` : logP value = 7.8
